Data provenance: patent US10168342B2

Measurement Target: AEA-DA lipid probe targets in Neuro2a cells (Mus musculus)
Sequence (Q91ZV0 23-1396): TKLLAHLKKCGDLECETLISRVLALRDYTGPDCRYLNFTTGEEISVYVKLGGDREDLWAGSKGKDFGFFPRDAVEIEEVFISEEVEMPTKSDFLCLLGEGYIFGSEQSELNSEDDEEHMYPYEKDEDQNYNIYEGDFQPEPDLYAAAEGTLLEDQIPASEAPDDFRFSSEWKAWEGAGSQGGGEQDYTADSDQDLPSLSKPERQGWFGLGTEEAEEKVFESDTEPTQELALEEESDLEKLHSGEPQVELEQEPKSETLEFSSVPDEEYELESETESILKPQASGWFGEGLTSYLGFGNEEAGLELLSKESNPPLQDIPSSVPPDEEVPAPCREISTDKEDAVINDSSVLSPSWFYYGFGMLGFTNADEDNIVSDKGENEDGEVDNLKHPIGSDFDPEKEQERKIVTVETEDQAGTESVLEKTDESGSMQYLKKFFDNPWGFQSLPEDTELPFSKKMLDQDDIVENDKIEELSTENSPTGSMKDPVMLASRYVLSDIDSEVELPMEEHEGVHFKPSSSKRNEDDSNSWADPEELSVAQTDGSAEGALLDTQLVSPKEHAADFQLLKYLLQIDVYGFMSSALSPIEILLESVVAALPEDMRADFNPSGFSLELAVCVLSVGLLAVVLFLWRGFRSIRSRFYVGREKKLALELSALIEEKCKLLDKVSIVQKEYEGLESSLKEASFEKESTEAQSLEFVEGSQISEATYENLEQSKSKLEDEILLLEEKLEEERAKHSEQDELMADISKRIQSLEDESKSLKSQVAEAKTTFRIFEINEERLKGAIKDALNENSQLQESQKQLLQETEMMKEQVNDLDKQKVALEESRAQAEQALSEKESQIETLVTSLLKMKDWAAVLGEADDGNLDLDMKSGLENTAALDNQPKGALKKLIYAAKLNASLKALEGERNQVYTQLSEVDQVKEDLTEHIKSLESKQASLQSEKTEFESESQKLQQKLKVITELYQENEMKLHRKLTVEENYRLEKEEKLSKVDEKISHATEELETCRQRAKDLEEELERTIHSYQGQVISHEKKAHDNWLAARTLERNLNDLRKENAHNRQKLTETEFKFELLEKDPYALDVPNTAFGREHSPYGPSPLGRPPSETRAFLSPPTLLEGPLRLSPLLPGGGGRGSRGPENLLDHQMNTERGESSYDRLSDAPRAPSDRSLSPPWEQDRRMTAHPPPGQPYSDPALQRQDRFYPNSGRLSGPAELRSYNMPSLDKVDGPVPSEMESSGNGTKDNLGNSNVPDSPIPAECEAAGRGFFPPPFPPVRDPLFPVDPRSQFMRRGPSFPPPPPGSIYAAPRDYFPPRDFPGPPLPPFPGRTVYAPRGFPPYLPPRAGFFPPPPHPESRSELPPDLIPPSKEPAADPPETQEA
Experimental Conditions: competitor 25 μM
Property Name: SILAC ratio, Ctage5
Please respond with just the number, no unit label.

Below: 3 compounds and their reported SILAC ratio, Ctage5.
O=C(/C=C/c1cccnc1)NCCCCC1CCN(C(=O)c2ccccc2)CC1 [FK-866, reference compound] ... 1.1
C=CCN(C)CCCCCCOc1ccc(C(=O)c2ccc(Br)cc2)c(F)c1 [Ro 48-8071, reference compound] ... 1.0
CN1CCN(C(=O)c2c(-c3ccccc3)c3cc([N+](=O)[O-])ccc3n2C)CC1 [KML110] ... 1.4

We now examine a further compound.
Indicate its recorded SILAC ratio, Ctage5; the compound in question is CN1CCN(C(=O)c2[nH]c3ccc([N+](=O)[O-])cc3c2-c2ccccc2)CC1 [MJN228]
1.3
